- target-desc: Gcr1 (UniProt P07261)
- Sequence: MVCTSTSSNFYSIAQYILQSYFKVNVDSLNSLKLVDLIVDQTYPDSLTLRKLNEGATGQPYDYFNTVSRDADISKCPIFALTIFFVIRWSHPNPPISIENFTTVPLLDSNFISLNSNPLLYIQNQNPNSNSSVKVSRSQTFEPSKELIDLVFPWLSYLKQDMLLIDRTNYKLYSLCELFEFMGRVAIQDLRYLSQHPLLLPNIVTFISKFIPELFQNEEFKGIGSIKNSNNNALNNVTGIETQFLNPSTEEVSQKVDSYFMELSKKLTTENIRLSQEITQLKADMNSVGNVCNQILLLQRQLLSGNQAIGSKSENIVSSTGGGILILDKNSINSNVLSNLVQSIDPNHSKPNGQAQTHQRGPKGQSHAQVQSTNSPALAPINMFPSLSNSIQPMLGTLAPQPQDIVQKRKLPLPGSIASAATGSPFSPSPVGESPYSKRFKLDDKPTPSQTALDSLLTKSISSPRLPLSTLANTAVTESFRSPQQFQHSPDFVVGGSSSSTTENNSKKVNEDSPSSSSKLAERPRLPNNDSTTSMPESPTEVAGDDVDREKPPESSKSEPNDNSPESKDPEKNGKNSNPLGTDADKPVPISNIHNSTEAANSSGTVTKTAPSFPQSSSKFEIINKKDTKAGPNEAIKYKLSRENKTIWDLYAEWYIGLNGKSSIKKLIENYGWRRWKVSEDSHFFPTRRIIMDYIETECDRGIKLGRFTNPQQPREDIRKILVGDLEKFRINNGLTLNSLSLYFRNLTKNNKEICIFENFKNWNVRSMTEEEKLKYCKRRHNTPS
- measurement-description: PBM E-score (8-mer binding enrichment) (E-score (-0.5 to 0.5)); higher = stronger / more preferred TF binding
- condition-label: protein concentration: 100 nM; construct: GST-full length
The full ranking holds about 33,000 sequences; the median of “E-score (-0.5 to 0.5)” is about -0.011, and the highest 2% start at about 0.28. This excerpt belongs to a sample that is enriched for the highest values.
Recorded PBM E-score, one value per entry.
property-measured: PBM E-score

>>> assay_result("AAGCACCG")
0.0663
>>> assay_result("CAGGTATA")
-0.0414
>>> assay_result("CCGCTTCC")
0.346
>>> assay_result("AAGCAGGA")
0.0293
>>> assay_result("ACGCTTCG")
-0.0461
>>> assay_result("CGGCAACA")
0.206
>>> assay_result("CCTGTGAG")
-0.218
>>> assay_result("ACGCTTCA")
-0.0408
>>> assay_result("ACGGTATC")
-0.0774
>>> assay_result("AGATGAGG")
-0.0257
>>> assay_result("GAGTTTCA")
-0.0957
>>> assay_result("AAGCAACC")
0.0616
>>> assay_result("AGGCAACC")
0.0186
>>> assay_result("AGTGGTGC")
0.305
>>> assay_result("AGGCTTCC")
0.436
>>> assay_result("ACTGTAGA")
-0.079
>>> assay_result("GCGCTTCC")
0.348
>>> assay_result("CCCCGTTC")
-0.082
>>> assay_result("AGCCTCTA")
0.0722
>>> assay_result("ACCTGTAA")
-0.0579
>>> assay_result("CGGCAACC")
0.29
>>> assay_result("AGGCTTCG")
0.00576
>>> assay_result("ACGCGCAT")
-0.0657
>>> assay_result("TACCGTAA")
0.0593
>>> assay_result("GCGCTTCA")
-0.0425
>>> assay_result("ACTGTATC")
-0.275
>>> assay_result("CCTGTATA")
0.2
>>> assay_result("CGTGGTGC")
-0.0202
>>> assay_result("CCGCAACC")
0.316
>>> assay_result("CCTGTAGA")
0.283
>>> assay_result("AATGGTGG")
-0.00912
>>> assay_result("CAGCAACG")
0.0545
>>> assay_result("GCAGGAAC")
-0.0184
>>> assay_result("ATGGGCCA")
-0.112
>>> assay_result("CCTGTATC")
0.324
>>> assay_result("ACGTTGCA")
-0.015
>>> assay_result("ATTAGCTG")
0.107
>>> assay_result("CCGGTATA")
0.191
>>> assay_result("AAGCACCA")
0.0436
>>> assay_result("CTTAGATA")
0.0548
>>> assay_result("AAGCACCT")
0.106
>>> assay_result("AGTGGTAG")
0.318
>>> assay_result("ATCCCATG")
-0.0862
>>> assay_result("AGGATTGA")
0.106
>>> assay_result("CCGCTTCG")
0.0926
>>> assay_result("CCGCAACA")
-0.0641
